Biological target: T1, human SLC34A2 (human, UniProt O95436 1-690)
T1 construct: whole, on cells; also called human solute carrier 34 A2; NaPi2b
T1 sequence (looked up): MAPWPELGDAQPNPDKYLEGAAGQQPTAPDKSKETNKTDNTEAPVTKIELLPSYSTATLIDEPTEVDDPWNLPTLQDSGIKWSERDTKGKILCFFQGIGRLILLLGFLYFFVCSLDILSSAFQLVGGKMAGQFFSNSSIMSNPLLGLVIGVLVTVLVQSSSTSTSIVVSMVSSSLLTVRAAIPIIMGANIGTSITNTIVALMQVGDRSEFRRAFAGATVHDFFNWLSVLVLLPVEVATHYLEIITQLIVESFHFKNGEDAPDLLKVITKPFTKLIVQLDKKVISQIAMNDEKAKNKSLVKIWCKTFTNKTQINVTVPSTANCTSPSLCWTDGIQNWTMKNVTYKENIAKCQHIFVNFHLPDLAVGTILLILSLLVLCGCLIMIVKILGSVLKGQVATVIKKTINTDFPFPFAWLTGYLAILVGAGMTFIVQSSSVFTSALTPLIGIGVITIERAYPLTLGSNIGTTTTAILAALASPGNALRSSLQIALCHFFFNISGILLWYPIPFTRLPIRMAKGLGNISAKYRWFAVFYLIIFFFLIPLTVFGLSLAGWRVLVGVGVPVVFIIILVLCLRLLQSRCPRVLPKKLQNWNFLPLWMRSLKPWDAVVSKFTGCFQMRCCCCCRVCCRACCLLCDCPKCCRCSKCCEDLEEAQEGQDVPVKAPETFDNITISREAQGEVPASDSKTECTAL
Assay: FACS, OVCAR3 cells
Listing: pEC50 of selected binders
pEC50 here: minus log base 10 of the concentration, concentration in moles per litre.

[
  {
    "binder": "xi94B10A8 hIgG1 (antibody, V domains shown, chimeric, hIgG1) VH: QVQLQQTGAELVKPGASVKMSCKASGYTFTGYIIHWIKQRPGQGLEWIGAIYPGNGDTSYNQKIKGRATLTADKSSTTAYMQLSSLTSEDSAVYYCARGDYGNPAWFAYWGQGTLVTVSA VL: DVVLTQSPATLSVTPGDRVSLSCRASQSISNYLYWYQQKAHESPRLLIKFASQSISGIPSRFRGSGSGTDFTLSINSVETEDFGMYFCQQSNKWPLTFGAGTKLELK",
    "pEC50": 8.80
  }
]

Okay, next one:
Exercise: # get_value(readout='pEC50', item= xi78D1B10 hIgG1 (antibody, V domains shown, chimeric, hIgG1) VH: QVQLQQPGADLVKPGASVKLSCKASGFTFTSYIIHWVKQTPGQGLEWIGAIYPGNGDTSYIQKFKGRATLTADKSSTTAYMQLGGLTSEDSAVYYCARGTYGSSAWFVYWGQGTLVTVSA VL: DIVLTQSPATLSVTPGDSVSLSCRASQSISNNLYWYQQKSHESPRLLIKYASQSISGIPSRFRGSGSGTDFTLSINSVETEDFGMYFCQQSNSWPLTFGAGTKLELK )
Key: 8.60
